These data points were gathered from the supplement of paper PMC6555819.

System: PXR homodimer (NR concentration 270 nM)
Assay: PBM binding z-score (relative to random genomic background probes); higher = stronger binding; sequences stand for … in GC…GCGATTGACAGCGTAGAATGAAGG
Measured PBM binding z-score, listed per entry for reference.
Answer with a number only.

Reference set (10 entries):
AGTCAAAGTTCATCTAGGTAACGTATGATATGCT; 7.63
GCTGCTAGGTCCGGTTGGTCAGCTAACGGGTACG; -0.913
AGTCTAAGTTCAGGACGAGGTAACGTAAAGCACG; 1.18
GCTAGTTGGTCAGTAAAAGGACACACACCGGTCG; 0.246
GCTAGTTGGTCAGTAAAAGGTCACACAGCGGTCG; 1.17
CAAACAAGGTCAAGAGGTCAAAGTCCGCTTCCCG; 5.91
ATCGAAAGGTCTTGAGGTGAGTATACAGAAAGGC; -0.368
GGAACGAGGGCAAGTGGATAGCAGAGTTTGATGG; 0.421
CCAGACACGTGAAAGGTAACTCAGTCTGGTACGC; -0.312
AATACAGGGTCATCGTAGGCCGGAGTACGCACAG; 0.419

QUERY: Return reported PBM binding z-score. Input sequence: `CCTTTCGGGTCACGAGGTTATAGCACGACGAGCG`
RESULT: 0.795

QUERY: Return reported PBM binding z-score. Input sequence: `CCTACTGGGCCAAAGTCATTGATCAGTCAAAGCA`
RESULT: -0.623

QUERY: Return reported PBM binding z-score. Input sequence: `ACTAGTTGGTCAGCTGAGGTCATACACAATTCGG`
RESULT: 3.46

====

Tested on: PPARg:RXRa 90nM:30nM, anti-RXR (NR concentration 90 nM, RXRa partner concentration 30 nM)
Assay: PBM binding z-score (relative to random genomic background probes); higher = stronger binding; sequences stand for … in GC…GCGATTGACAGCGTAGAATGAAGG
reportedEndpoint: PBM binding z-score
Answer with a number only.

Reference set (3 entries):
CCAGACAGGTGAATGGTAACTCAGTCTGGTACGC; -0.216
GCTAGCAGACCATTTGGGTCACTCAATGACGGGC; -0.229
ATCGAAATGTCGAAGGTGAGTATACCCACCCGAA; 0.522

QUERY: Return reported PBM binding z-score. Input sequence: `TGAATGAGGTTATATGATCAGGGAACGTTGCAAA`
RESULT: 1.45

====

System: RARa homodimer (NR concentration 270 nM)
Assay: PBM binding z-score (relative to random genomic background probes); higher = stronger binding; sequences stand for … in GC…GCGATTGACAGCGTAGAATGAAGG
I would appreciate it if you labelled entries 1 when PBM binding z-score is -0.08 or higher, otherwise 0.

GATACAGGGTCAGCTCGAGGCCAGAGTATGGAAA; 0

QUERY: Is the recorded value of PBM binding z-score equal to or greater than -0.08 for this sequence? `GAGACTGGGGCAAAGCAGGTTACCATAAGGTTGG`
RESULT: 0

QUERY: Is the recorded value of PBM binding z-score equal to or greater than -0.08 for this sequence? `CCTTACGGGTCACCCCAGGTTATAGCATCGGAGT`
RESULT: 1

QUERY: Is the recorded value of PBM binding z-score equal to or greater than -0.08 for this sequence? `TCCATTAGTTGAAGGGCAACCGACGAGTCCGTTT`
RESULT: 1

QUERY: Is the recorded value of PBM binding z-score equal to or greater than -0.08 for this sequence? `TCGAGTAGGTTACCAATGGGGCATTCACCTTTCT`
RESULT: 0

QUERY: Is the recorded value of PBM binding z-score equal to or greater than -0.08 for this sequence? `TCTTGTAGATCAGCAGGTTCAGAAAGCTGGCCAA`
RESULT: 0

====

Measured PBM binding z-score, listed per entry for reference.
Test system: PPARg:RXRa 30nM:10nM, anti-RXR (NR concentration 30 nM, RXRa partner concentration 10 nM)
Assay: PBM binding z-score (relative to random genomic background probes); higher = stronger binding; sequences stand for … in GC…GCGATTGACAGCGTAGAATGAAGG
Answer with a number only.

Reference set (8 entries):
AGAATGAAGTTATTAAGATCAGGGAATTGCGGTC; 0.106
CCTACTGGGCCATTCAGAGGTCTTTGATCATATG; -0.397
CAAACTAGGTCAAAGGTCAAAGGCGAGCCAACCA; 14.7
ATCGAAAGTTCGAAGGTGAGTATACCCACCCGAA; 0.177
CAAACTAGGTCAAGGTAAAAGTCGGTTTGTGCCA; 4.93
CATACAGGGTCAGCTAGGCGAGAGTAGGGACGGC; 0.767
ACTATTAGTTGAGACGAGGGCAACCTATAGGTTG; 0.31
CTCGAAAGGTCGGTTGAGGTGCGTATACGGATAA; 0.258

QUERY: Return reported PBM binding z-score. Input sequence: `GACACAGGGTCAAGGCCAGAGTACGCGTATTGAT`
RESULT: 1.65

QUERY: Return reported PBM binding z-score. Input sequence: `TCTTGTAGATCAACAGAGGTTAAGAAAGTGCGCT`
RESULT: 2.33

====

Tested on: RARa homodimer (NR concentration 270 nM)
Experiment: PBM binding z-score (relative to random genomic background probes); higher = stronger binding; sequences stand for … in GC…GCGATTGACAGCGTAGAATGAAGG
Measured PBM binding z-score, listed per entry for reference.

Reference set (2 entries):
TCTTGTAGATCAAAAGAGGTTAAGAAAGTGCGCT; -0.0887
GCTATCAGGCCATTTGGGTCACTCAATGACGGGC; -0.0153

QUERY: Return reported PBM binding z-score. Input sequence: `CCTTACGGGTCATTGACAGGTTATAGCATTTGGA`
RESULT: 0.122

QUERY: Return reported PBM binding z-score. Input sequence: `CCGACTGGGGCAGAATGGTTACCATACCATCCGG`
RESULT: -0.164

====

Test system: THRa:RXRa (NR concentration 90 nM, RXRa partner concentration 90 nM)
Assay: PBM binding z-score (relative to random genomic background probes); higher = stronger binding; sequences stand for … in GC…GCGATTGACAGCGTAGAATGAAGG
I would appreciate it if you labelled entries Y when PBM binding z-score is 3 or higher, otherwise N.

Below are worked cases with known answers.
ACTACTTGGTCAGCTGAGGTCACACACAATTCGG; Y
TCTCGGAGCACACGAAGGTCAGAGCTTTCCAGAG; N
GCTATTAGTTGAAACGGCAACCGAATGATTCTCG; N
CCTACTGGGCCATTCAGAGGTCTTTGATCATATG; N
TCTATTAGTTGATGGGCAACCGACGAGTCCGTTT; N

QUERY: Is the recorded value of PBM binding z-score equal to or greater than 3 for this sequence? `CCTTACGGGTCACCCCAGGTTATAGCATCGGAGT`
RESULT: Y

QUERY: Is the recorded value of PBM binding z-score equal to or greater than 3 for this sequence? `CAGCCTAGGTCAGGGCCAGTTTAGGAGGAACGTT`
RESULT: N

QUERY: Is the recorded value of PBM binding z-score equal to or greater than 3 for this sequence? `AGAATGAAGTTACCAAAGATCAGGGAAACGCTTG`
RESULT: N

QUERY: Is the recorded value of PBM binding z-score equal to or greater than 3 for this sequence? `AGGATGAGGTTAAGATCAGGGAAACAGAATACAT`
RESULT: N

QUERY: Is the recorded value of PBM binding z-score equal to or greater than 3 for this sequence? `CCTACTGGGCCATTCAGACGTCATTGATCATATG`
RESULT: N

QUERY: Is the recorded value of PBM binding z-score equal to or greater than 3 for this sequence? `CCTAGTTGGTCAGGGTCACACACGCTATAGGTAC`
RESULT: Y

QUERY: Is the recorded value of PBM binding z-score equal to or greater than 3 for this sequence? `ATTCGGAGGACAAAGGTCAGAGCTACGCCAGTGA`
RESULT: Y

QUERY: Is the recorded value of PBM binding z-score equal to or greater than 3 for this sequence? `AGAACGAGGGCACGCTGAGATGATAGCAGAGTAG`
RESULT: N

QUERY: Is the recorded value of PBM binding z-score equal to or greater than 3 for this sequence? `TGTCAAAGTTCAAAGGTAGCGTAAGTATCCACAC`
RESULT: N

QUERY: Is the recorded value of PBM binding z-score equal to or greater than 3 for this sequence? `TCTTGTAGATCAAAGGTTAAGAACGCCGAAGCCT`
RESULT: N

====

Test system: LXRb:RXRa (NR concentration 270 nM, RXRa partner concentration 90 nM)
Assay: PBM binding z-score (relative to random genomic background probes); higher = stronger binding; sequences stand for … in GC…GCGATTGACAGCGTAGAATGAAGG
The class of a record is decided solely by its measured PBM binding z-score; consult Low (below 0.9), Mid (0.9 to below 3), High (3 or more)

Below are worked cases with known answers.
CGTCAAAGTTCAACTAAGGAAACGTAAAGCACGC; High
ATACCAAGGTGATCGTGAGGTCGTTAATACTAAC; Mid
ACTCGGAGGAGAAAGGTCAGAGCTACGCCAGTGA; Mid
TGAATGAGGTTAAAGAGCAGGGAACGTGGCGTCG; Mid
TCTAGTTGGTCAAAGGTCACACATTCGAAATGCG; High

QUERY: Sort into band: `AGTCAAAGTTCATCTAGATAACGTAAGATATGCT`
RESULT: High

QUERY: Sort into band: `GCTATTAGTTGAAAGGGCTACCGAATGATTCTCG`
RESULT: Low
